Provide the recorded EC50 cAMP, DiscoveRx for the entries that follow.
# assayedTarget: T1, human PAC1 receptor (human, UniProt P41586 21-468)
# T1 sequence (looked up): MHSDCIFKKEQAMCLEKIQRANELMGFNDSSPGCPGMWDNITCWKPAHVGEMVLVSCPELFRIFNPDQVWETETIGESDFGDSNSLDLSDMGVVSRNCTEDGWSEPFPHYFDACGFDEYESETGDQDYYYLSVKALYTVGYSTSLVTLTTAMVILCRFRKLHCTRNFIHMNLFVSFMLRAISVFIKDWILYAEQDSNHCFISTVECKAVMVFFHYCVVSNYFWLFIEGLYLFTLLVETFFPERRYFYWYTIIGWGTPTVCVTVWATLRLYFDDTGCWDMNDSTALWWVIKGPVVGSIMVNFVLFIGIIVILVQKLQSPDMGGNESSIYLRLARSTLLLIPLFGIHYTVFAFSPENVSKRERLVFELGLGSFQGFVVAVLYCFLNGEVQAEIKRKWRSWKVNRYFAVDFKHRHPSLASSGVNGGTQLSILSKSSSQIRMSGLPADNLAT
# method: cell-based or functional assay
Where no end group is shown, it is not given here. [ ]: non-standard residue; d: D form. The star is where a group is joined. hArg = N=C(N)NCCCC[C@H](N)C(=O)O; Hexanoyl = CCCCCC(=O)*
Give a bare numeral; the unit nM is implied.

# input binder: HSDAVVTDNYTRLRKQVAAKKYLQSIKNKRYGGPSSGAPPPS [P66] ; wanted: its EC50 cAMP, DiscoveRx
1.4

And HSDAWFTDNYTRLRKQVAAKKYLQSIKNKRYGGPSSGAPPPS [P69] ?
104

Okay, and HSDAYFTDNYTRLRKQVAAKKYLQSIKNKRYGGPSSGAPPPS [P70] ?
20.7

Now give it for HSDAVFTDNYTRLRRQVAAKKYLQSIKNKRYGGPSSGAPPPS [P72] too.
35.3

Now consider Hexanoyl-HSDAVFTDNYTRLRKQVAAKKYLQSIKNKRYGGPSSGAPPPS (also called VPAC2-P31) [P31] and answer again.
116

Param item: HSDAVFTDNYTRLRKQVAAKKYLQSI[hArg]NKRYGGPSSGAPPPS (ends and bridges not checked) [P22]
73.5

And what about the binder HSDAVFTDNYTRLRKQVAAKKYLQSIKNRRYGGPSSGAPPPS [P25] ?
137

Another binder to look at: HSDAVFTDNYTRLRKQVAAKKYLQSIKNNRYGGPSSGAPPPS [P75]
13.4

Follow-up entry: HSDAVLTDNYTRLRKQVAAKKYLQSIKNKRYGGPSSGAPPPS [P64]
0.1

One more binder: H[dA]DAVFTDNYTRLRKQVAAKKYLQSIKNKRYGGPSSGAPPPS [P47]
136
